- procedure-text: Cmax in brain of single dose ip administered mouse
- Assay type: ADME, organism-based
- Design: route intraperitoneal
property-measured: Cmax (ng/mL)

>>> value_reported("Cc1nc2c(N)ncnc2n1[C@@H]1O[C@H](CN(C)C/C=C\\CN)[C@@H](O)[C@H]1O")
660

* * *

- System: Trypanosoma brucei
- procedure-text: Inhibition of Trypanosoma brucei AdoMetDC assessed as ratio of Kinact to Ki(apparent)
Recorded Ratio for the following compounds
property-measured: Ratio

>>> value_reported("CN(C/C=C\\CN)C[C@H]1O[C@@H](n2cnc3c(N)ncnc32)[C@H](O)[C@@H]1O")
1.5
>>> value_reported("Cc1nc2c(N)ncnc2n1[C@@H]1O[C@H](CN(C)C/C=C\\CN)[C@@H](O)[C@H]1O")
7.78
>>> value_reported("CN(C/C=C\\CN)C[C@H]1O[C@@H](n2cnc3c(N)ncnc32)[C@H](F)[C@@H]1O")
0.19
>>> value_reported("CN(C/C=C\\CN)C[C@H]1O[C@@H](n2cnc3c(N)ncnc32)[C@@H](F)[C@@H]1O")
0.19
>>> value_reported("CN(C/C=C\\CN)C[C@H]1O[C@@H](n2cnc3c(N)nc(Cl)nc32)[C@H](O)[C@@H]1O")
0.02

* * *

- procedure-text: AUC in blood of single dose ip administered mouse
- Format: ADME, organism-based
property-measured: AUC

>>> value_reported("Cc1nc2c(N)ncnc2n1[C@@H]1O[C@H](CN(C)C/C=C\\CN)[C@@H](O)[C@H]1O")
"17900 ng·h/mL"

* * *

- procedure-text: Cmax in blood of single dose ip administered mouse
- Assay type: ADME, organism-based
- Parameters: route intraperitoneal
property-measured: Cmax (ng/mL)

>>> value_reported("Cc1nc2c(N)ncnc2n1[C@@H]1O[C@H](CN(C)C/C=C\\CN)[C@@H](O)[C@H]1O")
36900

* * *

- procedure-text: Half life in single dose ip administered mouse
- Assay type: ADME, organism-based
- condition-notes: in vivo
property-measured: half-life (h)

>>> value_reported("Cc1nc2c(N)ncnc2n1[C@@H]1O[C@H](CN(C)C/C=C\\CN)[C@@H](O)[C@H]1O")
7.43

* * *

- procedure-text: AUC in brain of single dose ip administered mouse
- Type: ADME, organism-based
property-measured: AUC (ng·h/mL)

>>> value_reported("Cc1nc2c(N)ncnc2n1[C@@H]1O[C@H](CN(C)C/C=C\\CN)[C@@H](O)[C@H]1O")
1300
